Test system: UACC-257
Conditions: UACC-257, Melanoma
A collection of compounds and their measured Total growth inhibition (TGI)

compound	Total growth inhibition (TGI) / µM
C=C1CCC2C3(C)COC(c4cn(-c5ccccc5)nc4-c4ccc(OC)cc4)OC3CCC2(C)C1CC=C1C(=O)OCC1O (stereo not drawn)	3.28
C=C1CCC2C3(C)COC(c4cn(-c5ccccc5)nc4-c4cccc(Br)c4)OC3CCC2(C)C1CC=C1C(=O)OCC1O (stereo not drawn)	3.45
C=C1CCC2C3(C)COC(c4cn(-c5ccccc5)nc4-c4ccc(F)cc4)OC3CCC2(C)C1CC=C1C(=O)OCC1O (stereo not drawn)	3.18
